molecular target: human CD4 (coated on ELISA plate) (human, UniProt P01730 26-396, limits assumed); assay: competition ELISA, plate-coated human CD4, competitor biotinylated mouse antibody at 0.2 µg/ml
Relative Binding (IC50 of test sample divided by IC50 of mouse antibody) overview
READOUT_NAME: Relative Binding (IC50 of test sample divided by IC50 of mouse antibody) (fold)

{"columns": ["BINDER", "NUMBER"],
 "data": [
  ["modified anti-CD4 antibody VH2/VK1 (antibody, V domains shown) VH: EVQLQQSGSELKRPGASVKVSCKASGYTFANYWMHWVKQAPGQGLQWIGALYPGNVDTTYNQKFKDKAKLTADTSASTAYMELSSLTNEDTAVYYCTRMGTTLEAPLDYWGQGTLVTVSS VL: QIVLTQSPATLSASPGEKAAMTCSARSSVSYLYWYQQKPGSSPRALIYDTSNLASGVPSRFSGSGSGTDYSLTISSMEAEDAATYYCQQWSDYPLTFGAGTKLEIK", 8.66],
  ["modified anti-CD4 antibody VH4/VK2 (antibody, V domains shown) VH: EVQLQQSGTELKRPGASVKMSCKASGYTFANYWMHWVKQAPGQGLQWIGALYPGNVDTTYNQKFKDKAKLTAVTSASTAYMELSSLTNEDSAVYYCTRMGTTLEAPLDYWGQGTTVTVSS VL: QIVLTQSPATLSASPGEKAAMTCSARSSVSYLYWYQQKPGSSPRLLIYDTSNLASGVPSRFSGSGSGTDYSLTISSMEAEDAATYYCQQWSDYPLTFGAGTKLEIK", 0.73],
  ["modified anti-CD4 antibody VH1/VK1 (antibody, V domains shown, VK1=20, VK2=18, VK3=16, VK4=14) VH: EVQLQQSGSELKRPGASVKVSCKASGYTFANYWMHWVRQAPGQGLQWIGALYPGNVDTTYNQKFKDKAKITRDTSASTAYMELSSLTNEDTAVYYCTRMGTTLEAPLDYWGQGTLVTVSS VL: QIVLTQSPATLSASPGEKAAMTCSARSSVSYLYWYQQKPGSSPRALIYDTSNLASGVPSRFSGSGSGTDYSLTISSMEAEDAATYYCQQWSDYPLTFGAGTKLEIK", 0.14],
  ["modified anti-CD4 antibody VH2/VK2 (antibody, V domains shown) VH: EVQLQQSGSELKRPGASVKVSCKASGYTFANYWMHWVKQAPGQGLQWIGALYPGNVDTTYNQKFKDKAKLTADTSASTAYMELSSLTNEDTAVYYCTRMGTTLEAPLDYWGQGTLVTVSS VL: QIVLTQSPATLSASPGEKAAMTCSARSSVSYLYWYQQKPGSSPRLLIYDTSNLASGVPSRFSGSGSGTDYSLTISSMEAEDAATYYCQQWSDYPLTFGAGTKLEIK", 0.96]
]}

FYI, the data here is from patent US20130330334A1.
